Conditions: in water, 308.15 K

# chemical-structure, solubility (mole fraction)
records = [
    ("O=C1Nc2ccccc2C1=O", "8.08e-05"),
]

====

Details: in ethyl acetate, 318.15 K
measured-endpoint: solubility (mole fraction)

# chemical-structure, measured-endpoint, recorded-result
rows = [
    ("O=C1Nc2ccccc2C1=O", "solubility (mole fraction)", 0.00926),
]

====

Conditions: in propylene glycol, 298.15 K
measured-endpoint: solubility (mole fraction)

# chemical-structure, measured-endpoint, recorded-result
records = [
    ("O=C1Nc2ccccc2C1=O", "solubility (mole fraction)", 0.00673),
]

====

Conditions: in propylene glycol, 328.15 K
measured-endpoint: solubility (mole fraction)

# chemical-structure, recorded-result
rows = [
    ("O=C1Nc2ccccc2C1=O", 0.0112),
]
